Provenance of the data: ChEMBL document CHEMBL1145880

molecular target: Melanocortin receptor 4 (Homo sapiens); test: Agonistic activity measured as […] cAMP accumulation in HEK cells expressing human Melanocortin 4 receptor (hMC4R)
OBSERVATION_TYPE: EC50 (nM)

Answered cases to consult:
{"COMPOUND": "COCC(=O)Nc1ccccc1N1CCN(C(=O)[C@@H](Cc2ccc(Cl)cc2)NC(=O)[C@H]2Cc3ccccc3CN2)CC1", "EC50, nM": 600}
{"COMPOUND": "CC(C)S(=O)(=O)Nc1ccccc1N1CCN(C(=O)[C@@H](Cc2ccc(Cl)cc2)NC(=O)[C@H]2Cc3ccccc3CN2)CC1", "EC50, nM": 440}
{"COMPOUND": "O=C(N[C@H](Cc1ccc(Cl)cc1)C(=O)N1CCN(c2cccc(Cl)c2Cn2cncn2)CC1)[C@H]1Cc2ccccc2CN1", "EC50, nM": 470}
{"COMPOUND": "O=C(N[C@H](Cc1ccc(Cl)cc1)C(=O)N1CCN(c2ccccc2Cn2cncn2)CC1)[C@H]1Cc2ccccc2CN1", "EC50, nM": 80}
{"COMPOUND": "COC(=O)C(=O)Nc1ccccc1N1CCN(C(=O)[C@@H](Cc2ccc(Cl)cc2)NC(=O)[C@H]2Cc3ccccc3CN2)CC1", "EC50, nM": 1600}

I = CS(=O)(=O)N1CC2(CCN(C(=O)[C@@H](Cc3ccc(Cl)cc3)NC(=O)[C@H]3Cc4ccccc4CN3)CC2)c2ccccc21
II = O=C(NCc1ccccc1)Nc1ccccc1N1CCN(C(=O)[C@@H](Cc2ccc(Cl)cc2)NC(=O)[C@H]2Cc3ccccc3CN2)CC1
Ask | Which of the two gives a bigger number for EC50: I or II ? Bench note: the answer is the label of the chosen record.
Reply | II

a = CCC(C)N(Cc1ccccc1N1CCN(C(=O)[C@@H](Cc2ccc(Cl)cc2)NC(=O)[C@H]2Cc3ccccc3CN2)CC1)S(C)(=O)=O (stereo partly drawn)
b = CCC(CC)N(Cc1ccccc1N1CCN(C(=O)[C@@H](Cc2ccc(Cl)cc2)NC(=O)[C@H]2Cc3ccccc3CN2)CC1)S(C)(=O)=O
Ask | Between the entries labeled a and b , whose measured EC50 is lower? Bench note: the answer is the label of the chosen record.
Reply | a

a = O=C(Nc1ccccc1N1CCN(C(=O)[C@@H](Cc2ccc(Cl)cc2)NC(=O)[C@H]2Cc3ccccc3CN2)CC1)c1cccnc1
b = CC(C)CN(Cc1ccccc1N1CCN(C(=O)[C@@H](Cc2ccc(Cl)cc2)NC(=O)[C@H]2Cc3ccccc3CN2)CC1)S(C)(=O)=O
Ask | Between the entries labeled a and b , whose measured EC50 is lower? Bench note: the answer is the label of the chosen record.
Reply | b
(b: 380 nM, a: 1100 nM)

A = CC(C)(C)CN(Cc1ccccc1N1CCN(C(=O)[C@@H](Cc2ccc(Cl)cc2)NC(=O)[C@H]2Cc3ccccc3CN2)CC1)S(C)(=O)=O
B = O=C(N[C@H](Cc1ccc(Cl)cc1)C(=O)N1CCN(c2c(Cn3cncn3)ccc3ccccc23)CC1)[C@H]1Cc2ccccc2CN1
C = O=C(N[C@H](Cc1ccc(Cl)cc1)C(=O)N1CCN(c2ccccc2Cn2cnnc2)CC1)[C@H]1Cc2ccccc2CN1
Ask | Parameters: sort_field (EC50), sort_dir (desc). Answer by writing out the labels in the requested order.
Reply | A, B, C
(A: 2400 nM, B: 170 nM, C: 24 nM)

* * *

target: Melanocortin receptor 4 (Homo sapiens, UniProt P32245); assay: cAMP accumulation in HEK cells transfected with human melanocortin 4 receptor (hMC4R) with respect to alpha-MSH; assay type: functional, cell-based; conditions: HEK293
Sequence (P32245 whole entry): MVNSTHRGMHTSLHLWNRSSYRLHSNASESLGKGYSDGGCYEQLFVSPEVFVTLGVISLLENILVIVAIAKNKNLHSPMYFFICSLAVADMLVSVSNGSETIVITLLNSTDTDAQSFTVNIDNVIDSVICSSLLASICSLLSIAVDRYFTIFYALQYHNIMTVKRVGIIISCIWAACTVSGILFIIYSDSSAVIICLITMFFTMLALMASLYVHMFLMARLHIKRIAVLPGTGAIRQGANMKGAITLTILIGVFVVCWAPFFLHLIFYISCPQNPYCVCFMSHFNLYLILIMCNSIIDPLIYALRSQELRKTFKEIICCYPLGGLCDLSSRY
OBSERVATION_TYPE: Stimulation (%)

{"SMILES_STRING": "CN(c1ccccc1N1CCN(C(=O)[C@@H](Cc2ccc(Cl)cc2)NC(=O)[C@H]2Cc3ccccc3CN2)CC1)S(C)(=O)=O", "UNIT_DESCRIPTOR": "%", "Stimulation": 100}
{"SMILES_STRING": "CCN(Cc1ccccc1N1CCN(C(=O)[C@@H](Cc2ccc(Cl)cc2)NC(=O)[C@H]2Cc3ccccc3CN2)CC1)S(C)(=O)=O", "UNIT_DESCRIPTOR": "%", "Stimulation": 100}
{"SMILES_STRING": "CC(C)CN(Cc1ccccc1N1CCN(C(=O)[C@@H](Cc2ccc(Cl)cc2)NC(=O)[C@H]2Cc3ccccc3CN2)CC1)S(C)(=O)=O", "UNIT_DESCRIPTOR": "%", "Stimulation": 100}

* * *

target: Melanocortin receptor 4 (Mus musculus, UniProt P56450); assay: In vitro cAMP accumulation in Y1 cells transfected with mouse Melanocortin 4 receptor (mMC4R)
Sequence (P56450 whole entry): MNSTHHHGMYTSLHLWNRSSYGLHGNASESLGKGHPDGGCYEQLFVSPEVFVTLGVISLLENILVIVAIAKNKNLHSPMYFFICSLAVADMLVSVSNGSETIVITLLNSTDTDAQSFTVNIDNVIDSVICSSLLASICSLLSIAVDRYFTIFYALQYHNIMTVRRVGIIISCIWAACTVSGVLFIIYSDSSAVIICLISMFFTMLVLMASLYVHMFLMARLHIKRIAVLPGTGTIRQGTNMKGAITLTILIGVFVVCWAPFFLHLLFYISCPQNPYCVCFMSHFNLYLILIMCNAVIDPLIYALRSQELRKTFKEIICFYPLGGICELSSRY
OBSERVATION_TYPE: EC50 (nM)

1 = O=C(N[C@H](Cc1ccc(Cl)cc1)C(=O)N1CCN(c2ccccc2Cn2cnnc2)CC1)[C@H]1Cc2ccccc2CN1
2 = O=C(N[C@H](Cc1ccc(Cl)cc1)C(=O)N1CCC(Cn2cncn2)(C2CCCCC2)CC1)[C@H]1Cc2ccccc2CN1
3 = O=C(N[C@H](Cc1ccc(Cl)cc1)C(=O)N1CCN(c2ccccc2Cn2cncn2)CC1)[C@H]1Cc2ccccc2CN1
Ask | Ascending sort, EC50. Answer by writing out the labels in the requested order.
Reply | 2, 1, 3
(2: 7.6 nM, 1: 38 nM, 3: 59 nM)

* * *

target: Melanocortin receptor 5 (Homo sapiens, UniProt P33032); assay: In vitro cAMP accumulation in HEK cells transfected with human Melanocortin 5 receptor (hMC5R)
Sequence (P33032 whole entry): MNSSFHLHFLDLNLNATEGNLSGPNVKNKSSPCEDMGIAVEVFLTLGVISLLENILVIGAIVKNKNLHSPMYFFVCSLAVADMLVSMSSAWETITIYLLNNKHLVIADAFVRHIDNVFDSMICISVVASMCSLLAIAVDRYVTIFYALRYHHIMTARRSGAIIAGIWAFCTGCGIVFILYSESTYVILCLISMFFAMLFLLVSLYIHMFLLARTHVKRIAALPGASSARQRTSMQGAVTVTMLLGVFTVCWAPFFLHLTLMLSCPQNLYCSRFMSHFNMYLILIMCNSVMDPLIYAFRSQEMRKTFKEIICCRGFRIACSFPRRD
OBSERVATION_TYPE: EC50

Answered cases to consult:
{"SMILES_STRING": "O=C(N[C@H](Cc1ccc(Cl)cc1)C(=O)N1CCN(c2ccccc2Cn2cncn2)CC1)[C@H]1Cc2ccccc2CN1", "ASSAYED_SYSTEM": "Melanocortin receptor 5 (Homo sapiens, UniProt P33032)", "EC50": "> 3000 nM"}
{"SMILES_STRING": "O=C(N[C@H](Cc1ccc(Cl)cc1)C(=O)N1CCC(Cn2cncn2)(C2CCCCC2)CC1)[C@H]1Cc2ccccc2CN1", "ASSAYED_SYSTEM": "Melanocortin receptor 5 (Homo sapiens, UniProt P33032)", "EC50": "2700 nM"}

Kindly consider the entry below.
Ask | # get_value(readout='EC50', item= "O=C(N[C@H](Cc1ccc(Cl)cc1)C(=O)N1CCN(c2ccccc2Cn2cnnc2)CC1)[C@H]1Cc2ccccc2CN1" )
Reply | > 3000 nM

* * *

target: Melanocortin receptor 4 (Homo sapiens); assay: cAMP accumulation in HEK cells transfected with human melanocortin 4 receptor (hMC4R) with respect to alpha-MSH; format: functional, cell-based; settings: HEK293
OBSERVATION_TYPE: Stimulation (%)

Answered cases to consult:
{"SMILES_STRING": "O=C(N[C@H](Cc1ccc(Cl)cc1)C(=O)N1CCN(c2ccccc2NS(=O)(=O)C(F)(F)F)CC1)[C@H]1Cc2ccccc2CN1", "TEST_RESULT": 34}
{"SMILES_STRING": "O=C(N[C@H](Cc1ccc(Cl)cc1)C(=O)N1CCC(Cn2cncn2)(C2CCCCC2)CC1)[C@H]1Cc2ccccc2CN1", "TEST_RESULT": 100}
{"SMILES_STRING": "CC(C)(C)CN(Cc1ccccc1N1CCN(C(=O)[C@@H](Cc2ccc(Cl)cc2)NC(=O)[C@H]2Cc3ccccc3CN2)CC1)S(C)(=O)=O", "TEST_RESULT": 100}
{"SMILES_STRING": "O=C(N[C@H](Cc1ccc(Cl)cc1)C(=O)N1CCN(c2ccccc2Cn2cnnc2)CC1)[C@H]1Cc2ccccc2CN1", "TEST_RESULT": 100}
{"SMILES_STRING": "COc1ccc(Cn2cncn2)c(N2CCN(C(=O)[C@@H](Cc3ccc(Cl)cc3)NC(=O)[C@H]3Cc4ccccc4CN3)CC2)c1", "TEST_RESULT": 100}

1 = O=C(N[C@H](Cc1ccc(Cl)cc1)C(=O)N1CCN(c2cccc(Cl)c2Cn2cncn2)CC1)[C@H]1Cc2ccccc2CN1
2 = O=C(N[C@H](Cc1ccc(Cl)cc1)C(=O)N1CCN(c2ccccc2Cn2cncn2)CC1)[C@H]1Cc2ccccc2CN1
Ask | Which of the two gives a bigger number for Stimulation: 1 or 2 ? Bench note: the answer is the label of the chosen record.
Reply | 2
(2: 100%, 1: 70%)

* * *

Measured pEC50 accompanies every entry in the list below.
molecular target: Adrenocorticotropic hormone receptor (Mus musculus, UniProt Q64326); test: In vitro cAMP accumulation in Y1 cells transfected with mouse Melanocortin 2 receptor (mMC2R)
Sequence (Q64326 whole entry): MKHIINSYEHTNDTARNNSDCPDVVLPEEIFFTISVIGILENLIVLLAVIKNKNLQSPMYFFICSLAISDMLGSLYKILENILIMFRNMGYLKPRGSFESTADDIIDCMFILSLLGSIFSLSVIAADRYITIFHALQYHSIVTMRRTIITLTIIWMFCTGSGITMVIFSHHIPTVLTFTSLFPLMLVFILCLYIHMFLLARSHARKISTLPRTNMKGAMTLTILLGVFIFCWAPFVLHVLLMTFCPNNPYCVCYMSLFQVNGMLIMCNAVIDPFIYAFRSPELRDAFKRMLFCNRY
pEC50: −log10 of the molar value.

{"SMILES_STRING": "O=C(N[C@H](Cc1ccc(Cl)cc1)C(=O)N1CCN(c2ccccc2Cn2cncn2)CC1)[C@H]1Cc2ccccc2CN1", "TEST_RESULT": "< 5.00"}
{"SMILES_STRING": "O=C(N[C@H](Cc1ccc(Cl)cc1)C(=O)N1CCC(Cn2cncn2)(C2CCCCC2)CC1)[C@H]1Cc2ccccc2CN1", "TEST_RESULT": "< 5.00"}

Kindly consider the entry below.
Ask | # get_value(readout='pEC50', item= "O=C(N[C@H](Cc1ccc(Cl)cc1)C(=O)N1CCN(c2ccccc2Cn2cnnc2)CC1)[C@H]1Cc2ccccc2CN1" )
Reply | < 5.00
